Each entry below lists one item and its recorded IC50 value.
# Tested on: BE-13;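 note: growth inhibition of human BE-13 cells, measured with a cell viability assay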
# Method notes: cells
# Format: functional, cell-based
# Test conditions: Homo sapiens
# Description: SANGER: Inhibition of human BE-13 cell growth in a cell viability assay.
Express your answer in nM, writing the number without its unit.

Consider the reported IC50 for these molecules:
>>> data_value("COc1cc([C@@H]2c3cc4c(cc3[C@@H](O[C@@H]3O[C@@H]5CO[C@@H](C)O[C@H]5[C@H](O)[C@H]3O)[C@H]3COC(=O)[C@H]23)OCO4)cc(OC)c1O [ETOPOSIDE]")
504
>>> data_value("Nc1ccn([C@@H]2O[C@H](CO)[C@@H](O)[C@@H]2O)c(=O)n1")
825
>>> data_value("COc1ccc(-c2ccc3c(N4CCOC[C@@H]4C)nc(N4CCOC[C@@H]4C)nc3n2)cc1CO")
1120

Query CCC(=O)N1CCN(c2ccc(-n3c(=O)ccc4cnc5ccc(-c6cnc7ccccc7c6)cc5c43)cc2C(F)(F)F)CC1 yields IC50 of 37.6

====

Each entry below lists one item and its recorded pIC50 value.
# Test system: NCI-H1993
# Method notes: cells
# Assay type: functional, cell-based, Homo sapiens
# Test conditions: Homo sapiens, NCI-H1993
# Description: SANGER: Inhibition of human NCI-H1993 cell growth in a cell viability assay.
pIC50: −log10 of the molar value.

>>> data_value("CN(c1ncccc1CNc1nc(Nc2ccc3c(c2)CC(=O)N3)ncc1C(F)(F)F)S(C)(=O)=O [PF-00562271]")
"< 5.59"
>>> data_value("O=C1N=C(NCc2cccs2)S/C1=C\\c1ccc2ncccc2c1")
"< 5.30"
>>> data_value("Cc1cnc(-c2cnc(NCCNc3ccc(C#N)cn3)nc2-c2ccc(Cl)cc2Cl)[nH]1 [LADUVIGLUSIB]")
"< 5.59"
>>> data_value("COc1cc(F)c(F)c(Nc2ccc(I)cc2F)c1NS(=O)(=O)C1(CC(O)CO)CC1 (stereo not drawn)")
"< 5.30"
>>> data_value("CC(=O)O[C@@H]1[C@@H](OC(C)=O)[C@@H](O)[C@H](Oc2c(-c3ccc(O)cc3)oc3cc(O)cc(O)c3c2=O)O[C@H]1C")
"< 5.00"
>>> data_value("O=C(c1cc(Cc2n[nH]c(=O)c3ccccc23)ccc1F)N1CCN(C(=O)C2CC2)CC1 [OLAPARIB]")
"< 5.30"
>>> data_value("COC(=O)CNC(=O)C(=O)OC")
3.48

The molecule Nc1ccn([C@@H]2O[C@H](CO)[C@@H](O)[C@@H]2O)c(=O)n1 [CYTARABINE] , when measured on NCI-H1993, yielded pIC50 of < 5.70

====

# Test system: 639-V;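 note: growth inhibition of 639-V cells, read out with a cell viability assay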
# Method notes: cells
# Assay type: functional, cell-based, Homo sapiens
# Test conditions: Homo sapiens, 639-V
# Description: SANGER: Inhibition of human 639-V cell growth in a cell viability assay.
Each entry below lists one item and its recorded log10 IC50 value.
// do not treat as linear: log10 of IC50, unit µM

Consider the reported log10 IC50 for these molecules:
>>> data_value("O=C(NOCC1CC1)c1ccc(F)c(F)c1Nc1ccc(I)cc1Cl")
0.98
>>> data_value("C=CCNC1=C2C[C@@H](C)C[C@H](OC)[C@H](O)[C@@H](C)/C=C(\\C)[C@H](OC(N)=O)[C@@H](OC)/C=C\\C=C(/C)C(=O)NC(=CC1=O)C2=O")
-0.82
>>> data_value("COC(=O)CNC(=O)C(=O)OC")
3.18
>>> data_value("Cn1cncc1[C@@](N)(c1ccc(Cl)cc1)c1ccc2c(c1)c(-c1cccc(Cl)c1)cc(=O)n2C")
0.08

Query CC(=O)O[C@@]12CO[C@@H]1C[C@H](O)[C@@]1(C)C(=O)[C@H](O)C3=C(C)[C@@H](OC(=O)[C@H](O)[C@@H](NC(=O)OC(C)(C)C)c4ccccc4)C[C@@](O)([C@@H](OC(=O)c4ccccc4)[C@H]21)C3(C)C yields log10 IC50 of -3.19

Query COc1cc([C@@H]2c3cc4c(cc3[C@@H](O[C@@H]3O[C@@H]5CO[C@@H](C)O[C@H]5[C@H](O)[C@H]3O)[C@H]3COC(=O)[C@H]23)OCO4)cc(OC)c1O [ETOPOSIDE] yields log10 IC50 of 0.00

====

# Tested on: SF-268
# Method notes: cells
# Format: functional, cell-based, Homo sapiens
# Test conditions: Homo sapiens, SF-268
# Description: SANGER: Inhibition of human SF268 cell growth in a cell viability assay.
pIC50: −log10 of the molar value.
Each entry below lists one item and its recorded pIC50 value.

>>> data_value("O=c1cc(-c2cccc3c2Sc2ccccc2S3)oc(N2CCOCC2)c1")
"< 5.00"
>>> data_value("Cc1cnc(-c2cnc(NCCNc3ccc(C#N)cn3)nc2-c2ccc(Cl)cc2Cl)[nH]1")
"< 5.59"
>>> data_value("COC(=O)CNC(=O)C(=O)OC")
3.38
>>> data_value("CN(Cc1cnc2nc(N)nc(N)c2n1)c1ccc(C(=O)N[C@@H](CCC(=O)O)C(=O)O)cc1 [METHOTREXATE]")
"< 6.70"
>>> data_value("CO[C@H]1C[C@@H]2CC[C@@H](C)[C@@](O)(O2)C(=O)C(=O)N2CCCC[C@H]2C(=O)O[C@H]([C@H](C)C[C@@H]2CC[C@@H](O)[C@H](OC)C2)CC(=O)[C@H](C)/C=C(\\C)[C@@H](O)[C@@H](OC)C(=O)[C@H](C)C[C@H](C)/C=C/C=C/C=C/1C")
"< 7.00"
>>> data_value("COc1ccc(C2=N[C@@H](c3ccc(Cl)cc3)[C@@H](c3ccc(Cl)cc3)N2C(=O)N2CCNC(=O)C2)c(OC(C)C)c1")
"< 5.10"
>>> data_value("Cc1ccc(Nc2nccc(N(C)c3ccc4c(C)n(C)nc4c3)n2)cc1S(N)(=O)=O")
"< 5.10"
>>> data_value("CN(C)C/C=C/C(=O)Nc1cc2c(Nc3ccc(F)c(Cl)c3)ncnc2cc1O[C@H]1CCOC1")
"< 6.30"
>>> data_value("Nc1ccn([C@@H]2O[C@H](CO)[C@@H](O)[C@@H]2O)c(=O)n1")
5.87
>>> data_value("COc1cc(F)c(F)c(Nc2ccc(I)cc2F)c1NS(=O)(=O)C1(CC(O)CO)CC1 (stereo not drawn)")
"< 5.30"

Query CNC(=O)c1cc(Oc2ccc(NC(=O)Nc3ccc(Cl)c(C(F)(F)F)c3)cc2)ccn1 yields pIC50 of < 5.40

Query O=C(/C=C/c1ccccc1)NC(NC(=S)Nc1cccc2cccnc12)C(Cl)(Cl)Cl (stereo not drawn) yields pIC50 of < 4.80

Query C=CCc1cccc(/C=N/NC(=O)CN2CCN(Cc3ccccc3)CC2)c1O yields pIC50 of < 5.59

====

Each entry below lists one item and its recorded pIC50 value.
# Test system: HOP-62;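 note: cell growth inhibition determined with a viability assay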
# Method notes: cells
# Format: functional, cell-based, Homo sapiens
# Test conditions: Homo sapiens, HOP-62
# Description: SANGER: Inhibition of human HOP-62 cell growth in a cell viability assay.
pIC50: −log10 of the molar value.

Consider the reported pIC50 for these compounds:
>>> data_value("Cc1ccc(Nc2nccc(N(C)c3ccc4c(C)n(C)nc4c3)n2)cc1S(N)(=O)=O [PAZOPANIB]")
"< 5.10"
>>> data_value("CCC(=O)N1CCN(c2ccc(-n3c(=O)ccc4cnc5ccc(-c6cnc7ccccc7c6)cc5c43)cc2C(F)(F)F)CC1 [TORIN1]")
7.45

Query CS(=O)(=O)CCNCc1ccc(-c2ccc3ncnc(Nc4ccc(OCc5cccc(F)c5)c(Cl)c4)c3c2)o1 [LAPATINIB] yields pIC50 of < 5.70

Query CN(c1ncccc1CNc1nc(Nc2ccc3c(c2)CC(=O)N3)ncc1C(F)(F)F)S(C)(=O)=O [PF-00562271] yields pIC50 of < 5.59

====

Each entry below lists one item and its recorded IC50 value.
# Test system: FTC-133
# Method notes: cells
# Assay type: functional, cell-based, Homo sapiens
# Test conditions: Homo sapiens, FTC-133

Consider the reported IC50 for these compounds:
>>> data_value("O=C1N=C(NCc2cccs2)S/C1=C\\c1ccc2ncccc2c1")
"> 5 µM"
>>> data_value("C[C@]1(O)C[C@@H](c2nc(-c3ccc4ccc(-c5ccccc5)nc4c3)c3c(N)nccn32)C1")
"> 2.56 µM"
>>> data_value("CN(C)C/C=C/C(=O)Nc1cc2c(Nc3ccc(F)c(Cl)c3)ncnc2cc1O[C@H]1CCOC1")
"> 0.5 µM"

Let us move to another entry and its IC50.
Query COc1cc([C@@H]2c3cc4c(cc3[C@@H](O[C@@H]3O[C@@H]5CO[C@@H](C)O[C@H]5[C@H](O)[C@H]3O)[C@H]3COC(=O)[C@H]23)OCO4)cc(OC)c1O [ETOPOSIDE] yields IC50 of 3.59 µM

====

# System: LB373-MEL-D;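 note: growth inhibition of the cell line, read out in a cell viability assay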
# Method notes: cells
# Assay type: functional, cell-based, Homo sapiens
# Test conditions: Homo sapiens, LB373-MEL-D
# Description: SANGER: Inhibition of human LB373-MEL-D cell growth in a cell viability assay.
Each entry below lists one item and its recorded IC50 value.

Consider the reported IC50 for these molecules:
>>> data_value("Cn1cncc1[C@@](N)(c1ccc(Cl)cc1)c1ccc2c(c1)c(-c1cccc(Cl)c1)cc(=O)n2C")
"8.85 µM"
>>> data_value("CC(=O)O[C@@]12CO[C@@H]1C[C@H](O)[C@@]1(C)C(=O)[C@H](O)C3=C(C)[C@@H](OC(=O)[C@H](O)[C@@H](NC(=O)OC(C)(C)C)c4ccccc4)C[C@@](O)([C@@H](OC(=O)c4ccccc4)[C@H]21)C3(C)C")
"> 0.01 µM"
>>> data_value("CO[C@H]1C[C@@H]2CC[C@@H](C)[C@@](O)(O2)C(=O)C(=O)N2CCCC[C@H]2C(=O)O[C@H]([C@H](C)C[C@@H]2CC[C@@H](O)[C@H](OC)C2)CC(=O)[C@H](C)/C=C(\\C)[C@@H](O)[C@@H](OC)C(=O)[C@H](C)C[C@H](C)/C=C/C=C/C=C/1C")
"> 0.1 µM"
>>> data_value("CN(C)C/C=C/C(=O)Nc1cc2c(Nc3ccc(F)c(Cl)c3)ncnc2cc1O[C@H]1CCOC1")
"> 0.5 µM"

Let us move to another entry and its IC50.
Query C=CCNC1=C2C[C@@H](C)C[C@H](OC)[C@H](O)[C@@H](C)/C=C(\C)[C@H](OC(N)=O)[C@@H](OC)/C=C\C=C(/C)C(=O)NC(=CC1=O)C2=O yields IC50 of > 1 µM

Data origin, for the record: ChEMBL document CHEMBL1201861
